- ASSAY COMMENT: Plasma pharmacokinetics of AZD5363 after a single dose and multiple doses
- Assay type: in vivo, human
- CONDITION LABEL: human, plasma, oral, 320 mg, single dose; 320 mg bid continuous cohort, n=6; geometric mean (CV%); read-out: AUC
- Text: […] area under the plasma concentration–time curve (AUC), maximum plasma (peak) drug concentration (Cmax), time to reach Cmax (tmax), apparent plasma clearance (CL/F), and oral volume of distribution at steady state (Vss/F).
ASSAY READOUT: AUC (µg·h/mL)
Expressed in µg·h/mL, but write only the number.

Q: Please report the recorded AUC for NC1(C(=O)N[C@@H](CCO)c2ccc(Cl)cc2)CCN(c2ncnc3[nH]ccc23)CC1 [AZD5363] .
A: 7.11
